Data origin, for the record: ChEMBL document CHEMBL2331209

target.of.assay: UniProt:P14679
experimental.protocol: Inactivation of tyrosinase (unknown origin) assessed as decay half-life using 4-methylcatechol substrate at 850 uM equimolar concentrations resorcinol by spectrophotometry
test.readout: Decay half-life (%)

record.smiles	test.readout	endpoint.unit	quantitative.readout
Cc1cc(C)c(O)cc1O	Decay half-life	%	193
Oc1c(F)c(O)c(F)c(F)c1F	Decay half-life	%	97
Oc1c(Cl)cc(Cl)c(O)c1Cl	Decay half-life	%	73
Oc1cc(F)cc(O)c1F	Decay half-life	%	74
Oc1ccc(F)c(O)c1F	Decay half-life	%	48
Oc1cccc(O)c1F	Decay half-life	%	68
Oc1cccc(O)c1Cl	Decay half-life	%	72
Oc1cc(O)cc(O)c1	Decay half-life	%	81
Cc1c(O)cccc1O	Decay half-life	%	82
Oc1cc(O)c(Cl)cc1Cl	Decay half-life	%	160
Cc1cc(O)cc(O)c1	Decay half-life	%	31
Cc1cc(O)c(C)c(O)c1	Decay half-life	%	82
COc1cc(O)cc(O)c1	Decay half-life	%	22
Oc1cc(O)cc(F)c1	Decay half-life	%	122
Oc1cc(O)c(F)cc1F	Decay half-life	%	83

----------
target.of.assay: Tyrosinase (Homo sapiens) (UniProt P14679)
Sequence (P14679 whole entry): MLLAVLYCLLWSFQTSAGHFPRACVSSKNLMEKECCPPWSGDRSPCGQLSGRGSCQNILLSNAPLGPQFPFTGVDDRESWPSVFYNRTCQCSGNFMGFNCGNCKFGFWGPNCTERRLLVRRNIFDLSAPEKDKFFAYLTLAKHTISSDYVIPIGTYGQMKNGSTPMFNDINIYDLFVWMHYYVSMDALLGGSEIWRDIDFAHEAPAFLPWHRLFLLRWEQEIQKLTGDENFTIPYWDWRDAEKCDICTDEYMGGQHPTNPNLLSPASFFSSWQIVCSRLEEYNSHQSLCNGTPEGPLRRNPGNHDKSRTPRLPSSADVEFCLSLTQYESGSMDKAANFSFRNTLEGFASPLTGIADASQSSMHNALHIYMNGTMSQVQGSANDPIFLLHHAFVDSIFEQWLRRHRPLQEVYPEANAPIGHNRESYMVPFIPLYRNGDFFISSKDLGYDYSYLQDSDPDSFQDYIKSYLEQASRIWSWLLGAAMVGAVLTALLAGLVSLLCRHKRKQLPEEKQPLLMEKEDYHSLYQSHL
experimental.protocol: Inactivation of tyrosinase (unknown origin) assessed as initial rate of oxygen utilization at absorbance 400 nm using 4-methylcatechol substrate at 850 uM equimolar concentrations resorcinol by spectrophotometry
test.readout: Activity (%)

record.smiles	target.of.assay	test.readout	bound.type	quantitative.readout
Oc1cc(O)c(F)cc1F	Tyrosinase (Homo sapiens) (UniProt P14679)	Activity	=	30
COc1cc(O)cc(O)c1	Tyrosinase (Homo sapiens) (UniProt P14679)	Activity	=	62
Oc1cccc(O)c1O	Tyrosinase (Homo sapiens) (UniProt P14679)	Activity	=	100
Oc1cccc(O)c1Cl	Tyrosinase (Homo sapiens) (UniProt P14679)	Activity	=	79
CCc1ccc(O)cc1O	Tyrosinase (Homo sapiens) (UniProt P14679)	Activity	<	1
Oc1cc(O)cc(O)c1	Tyrosinase (Homo sapiens) (UniProt P14679)	Activity	=	133
Oc1c(Cl)cc(Cl)c(O)c1Cl	Tyrosinase (Homo sapiens) (UniProt P14679)	Activity	=	105
Oc1cccc(O)c1F	Tyrosinase (Homo sapiens) (UniProt P14679)	Activity	=	40
Cc1cc(C)c(O)cc1O	Tyrosinase (Homo sapiens) (UniProt P14679)	Activity	=	57
Oc1ccc(F)c(O)c1	Tyrosinase (Homo sapiens) (UniProt P14679)	Activity	=	10
Oc1cc(O)c(Cl)cc1Cl	Tyrosinase (Homo sapiens) (UniProt P14679)	Activity	=	22
Oc1cc(O)cc(F)c1	Tyrosinase (Homo sapiens) (UniProt P14679)	Activity	=	46
Oc1cc(F)cc(O)c1F	Tyrosinase (Homo sapiens) (UniProt P14679)	Activity	=	51
Oc1ccc(F)c(O)c1F	Tyrosinase (Homo sapiens) (UniProt P14679)	Activity	=	28
Cc1cc(O)c(C)c(O)c1	Tyrosinase (Homo sapiens) (UniProt P14679)	Activity	=	103
Oc1c(F)c(O)c(F)c(F)c1F	Tyrosinase (Homo sapiens) (UniProt P14679)	Activity	=	86
Cc1cc(O)cc(O)c1	Tyrosinase (Homo sapiens) (UniProt P14679)	Activity	=	46
Cc1c(O)cccc1O	Tyrosinase (Homo sapiens) (UniProt P14679)	Activity	=	103

----------
# reported Activity; entries follow
target.of.assay: Tyrosinase (Homo sapiens)
experimental.protocol: Inactivation of tyrosinase (unknown origin) assessed as initial rate of oxygen utilization using 4-methylcatechol substrate at 850 uM equimolar concentrations resorcinol by spectrophotometry

record.smiles	target.of.assay	endpoint.unit	Activity
Oc1cc(O)cc(F)c1	Tyrosinase (Homo sapiens)	%	67
Oc1cc(O)c(Cl)cc1Cl	Tyrosinase (Homo sapiens)	%	29
Cc1cc(O)c(C)c(O)c1	Tyrosinase (Homo sapiens)	%	97
Cc1cc(O)cc(O)c1	Tyrosinase (Homo sapiens)	%	63
Oc1ccc(F)c(O)c1F	Tyrosinase (Homo sapiens)	%	18
CCc1ccc(O)cc1O	Tyrosinase (Homo sapiens)	%	1
Cc1cc(C)c(O)cc1O	Tyrosinase (Homo sapiens)	%	46
Cc1c(O)cccc1O	Tyrosinase (Homo sapiens)	%	105
Oc1c(F)c(O)c(F)c(F)c1F	Tyrosinase (Homo sapiens)	%	91
Oc1cccc(O)c1Cl	Tyrosinase (Homo sapiens)	%	60
Oc1cc(O)cc(O)c1	Tyrosinase (Homo sapiens)	%	95
Oc1c(Cl)cc(Cl)c(O)c1Cl	Tyrosinase (Homo sapiens)	%	110
Oc1cc(O)c(F)cc1F	Tyrosinase (Homo sapiens)	%	30
Oc1ccc(F)c(O)c1	Tyrosinase (Homo sapiens)	%	6
Oc1cc(F)cc(O)c1F	Tyrosinase (Homo sapiens)	%	41
Oc1cccc(O)c1F	Tyrosinase (Homo sapiens)	%	33
COc1cc(O)cc(O)c1	Tyrosinase (Homo sapiens)	%	64
Oc1cccc(O)c1O	Tyrosinase (Homo sapiens)	%	100

----------
target.of.assay: Tyrosinase (Homo sapiens)
experimental.protocol: Inactivation of tyrosinase (unknown origin) assessed as total oxygen uptake using 4-methylcatechol substrate at 850 uM equimolar concentrations resorcinol by spectrophotometry

record.smiles	Activity / %
Oc1cc(O)cc(O)c1	75
Oc1cc(O)c(F)cc1F	29
Cc1c(O)cccc1O	90
Oc1cccc(O)c1F	35
Oc1cccc(O)c1Cl	69
Oc1c(Cl)cc(Cl)c(O)c1Cl	86
Oc1ccc(F)c(O)c1	0
Oc1cc(O)cc(F)c1	52
COc1cc(O)cc(O)c1	26
Oc1cccc(O)c1O	100
Cc1cc(O)c(C)c(O)c1	117
Oc1c(F)c(O)c(F)c(F)c1F	75
Cc1cc(O)cc(O)c1	28
Cc1cc(C)c(O)cc1O	69
Oc1cc(F)cc(O)c1F	31
Oc1cc(O)c(Cl)cc1Cl	33
CCc1ccc(O)cc1O	0
Oc1ccc(F)c(O)c1F	30
